molecule | melting point
CC1(C)OC(=O)Nc2ccc(-c3ccc([N+](=O)[O-])[nH]3)cc21 | 265 °C (dec.)
Cc1cc(Br)cc(-c2ccc3c(c2)C(C)(C)OC(=O)N3)c1 | 231 to 233 °C
CCC1(CC)OC(=O)Nc2ccc(-c3cccc(Cl)c3)cc21 | 150 to 151 °C
COc1cccc(-c2ccc3c(c2)C(C)(C(F)(F)F)OC(=O)N3)c1 (centres unmarked) | 178 to 179 °C
CC1(C)OC(=O)Nc2ccc(-c3coc(C=NO)c3)cc21 | 236 to 238 °C
